Protocol Details: Cytotoxicity against human OVCAR5 cells assessed as growth inhibition after 48 hrs by SRB assay
Type: functional
Assay Context: OVCAR-5, 48 h
Assign GI50 to each entry below.
Respond numerically; units are µM and should not be typed.

Query string: Which value of GI50 has been reported for `O=C1c2ccccc2C(=O)c2c1ccc1nc(SCCN3CCCC3)[nH]c21` in the records?
Result string: 15.5

Query string: Which value of GI50 has been reported for `CCCSc1nc2ccc3c(c2[nH]1)C(=O)c1ccccc1C3=O` in the records?
Result string: 58.1

Query string: Which value of GI50 has been reported for `CN(C)CCCSc1nc2ccc3c(c2[nH]1)C(=O)c1ccccc1C3=O` in the records?
Result string: 12.7

Query string: Which value of GI50 has been reported for `CCSc1nc2ccc3c(c2[nH]1)C(=O)c1ccccc1C3=O` in the records?
Result string: 6.25

###

Assign TGI to each entry below.
Test system: SNB-19
Protocol Details: Cytotoxicity against human SNB19 cells assessed as growth inhibition after 48 hrs by SRB assay
Type: functional
Assay Context: SNB-19, 48 h

Query string: Which value of TGI has been reported for `CN(C)CCCSc1nc2ccc3c(c2[nH]1)C(=O)c1ccccc1C3=O` in the records?
Result string: 20.7 µM

Query string: Which value of TGI has been reported for `O=C1c2ccccc2C(=O)c2c1ccc1nc(SCCN3CCCC3)[nH]c21` in the records?
Result string: 31.9 µM

Query string: Which value of TGI has been reported for `CCCSc1nc2ccc3c(c2[nH]1)C(=O)c1ccccc1C3=O` in the records?
Result string: > 100 µM

Query string: Which value of TGI has been reported for `CCSc1nc2ccc3c(c2[nH]1)C(=O)c1ccccc1C3=O` in the records?
Result string: > 100 µM

###

Assign Activity to each entry below.
Assay System: Telomerase reverse transcriptase (Homo sapiens) (UniProt O14746)
Sequence (O14746 whole entry): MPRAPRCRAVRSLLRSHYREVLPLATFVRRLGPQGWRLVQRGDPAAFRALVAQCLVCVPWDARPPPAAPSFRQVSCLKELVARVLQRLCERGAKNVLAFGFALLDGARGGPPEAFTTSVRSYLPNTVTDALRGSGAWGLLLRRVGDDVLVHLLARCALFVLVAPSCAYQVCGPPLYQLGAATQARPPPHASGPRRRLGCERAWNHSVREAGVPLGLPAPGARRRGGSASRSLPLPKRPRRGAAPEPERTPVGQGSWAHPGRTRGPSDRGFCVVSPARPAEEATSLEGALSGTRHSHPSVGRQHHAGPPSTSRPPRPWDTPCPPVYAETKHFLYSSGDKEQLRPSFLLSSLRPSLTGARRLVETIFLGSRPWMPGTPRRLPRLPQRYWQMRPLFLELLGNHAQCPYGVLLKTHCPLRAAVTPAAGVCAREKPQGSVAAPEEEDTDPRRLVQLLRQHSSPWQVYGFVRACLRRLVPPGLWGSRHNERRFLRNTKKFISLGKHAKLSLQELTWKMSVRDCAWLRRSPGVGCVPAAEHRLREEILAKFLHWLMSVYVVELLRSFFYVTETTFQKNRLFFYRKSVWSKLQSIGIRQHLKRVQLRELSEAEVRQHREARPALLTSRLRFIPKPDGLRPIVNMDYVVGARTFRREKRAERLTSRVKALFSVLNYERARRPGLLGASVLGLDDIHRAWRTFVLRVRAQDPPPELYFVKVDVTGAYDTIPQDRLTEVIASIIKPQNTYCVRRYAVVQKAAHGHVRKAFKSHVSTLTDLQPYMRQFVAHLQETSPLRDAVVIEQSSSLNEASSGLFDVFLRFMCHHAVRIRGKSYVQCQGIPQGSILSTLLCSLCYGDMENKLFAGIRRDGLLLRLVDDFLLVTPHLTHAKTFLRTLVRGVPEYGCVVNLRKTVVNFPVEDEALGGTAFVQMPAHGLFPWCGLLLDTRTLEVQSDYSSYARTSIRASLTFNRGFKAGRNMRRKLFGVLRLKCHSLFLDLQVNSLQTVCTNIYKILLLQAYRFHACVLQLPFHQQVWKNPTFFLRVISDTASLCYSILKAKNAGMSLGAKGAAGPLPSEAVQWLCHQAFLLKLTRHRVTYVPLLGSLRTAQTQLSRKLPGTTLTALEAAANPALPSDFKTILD
Protocol Details: Inhibition of human tert transcriptional activity assessed as SEAP activity at 100 uM after 24 hrs by SEAP reporter assay
Parameters: scale not given: the % may be the effect or the level left
Answer shape: numeric part, then the unit.

Query string: Which value of Activity has been reported for `O=C1c2ccccc2C(=O)c2c1ccc1nc(SCCC(=O)N3CCOCC3)[nH]c21` in the records?
Result string: 45%

Query string: Which value of Activity has been reported for `O=C1c2ccccc2C(=O)c2c1ccc1nc(SCCCCCCCl)[nH]c21` in the records?
Result string: 53%

Query string: Which value of Activity has been reported for `O=C1c2ccccc2C(=O)c2c1ccc1nc(SCCCCCl)[nH]c21` in the records?
Result string: 54%

Query string: Which value of Activity has been reported for `COc1cccc2c1C(=O)c1c(O)c3c(c(O)c1C2=O)C[C@@](O)(C(=O)CO)C[C@@H]3O[C@H]1C[C@H](N)[C@H](O)[C@H](C)O1` in the records?
Result string: 5%

Query string: Which value of Activity has been reported for `O=C1c2ccccc2C(=O)c2c1ccc1nc(SCCN3CCCCC3)[nH]c21` in the records?
Result string: 14%

Query string: Which value of Activity has been reported for `O=C1c2ccccc2C(=O)c2c1ccc1nc(SC(=O)N3CCCCC3)[nH]c21` in the records?
Result string: 81%

Query string: Which value of Activity has been reported for `C=CCSc1nc2ccc3c(c2[nH]1)C(=O)c1ccccc1C3=O` in the records?
Result string: 69%

Query string: Which value of Activity has been reported for `CCN(CC)C(=O)CSc1nc2ccc3c(c2[nH]1)C(=O)c1ccccc1C3=O` in the records?
Result string: 49%

Query string: Which value of Activity has been reported for `O=C1c2ccccc2C(=O)c2c1ccc1nc(SC(=O)N3CCCC3)[nH]c21` in the records?
Result string: 95%

Query string: Which value of Activity has been reported for `O=C1c2ccccc2C(=O)c2c1ccc1nc(SCCC(=O)N3CCCC3)[nH]c21` in the records?
Result string: 67%

###

Tested on: SN12C
Protocol Details: Cytotoxicity against human SN12C cells assessed as growth inhibition after 48 hrs by SRB assay
Type: functional
Measured Quantity: growth inhibition (GI)

>>> observed("CCCSc1nc2ccc3c(c2[nH]1)C(=O)c1ccccc1C3=O")
"Dose-dependent effect"
>>> observed("CCSc1nc2ccc3c(c2[nH]1)C(=O)c1ccccc1C3=O")
"Dose-dependent effect"
>>> observed("CN(C)CCCSc1nc2ccc3c(c2[nH]1)C(=O)c1ccccc1C3=O")
"Dose-dependent effect"
>>> observed("O=C1c2ccccc2C(=O)c2c1ccc1nc(SCCN3CCCC3)[nH]c21")
"Dose-dependent effect"

###

Assay System: Telomerase reverse transcriptase (Homo sapiens)
Protocol Details: Inhibition of human tert transcriptional activity assessed as SEAP activity at 1 uM after 24 hrs by SEAP reporter assay
Set-up: scale not given: the % may be the effect or the level left
Measured Quantity: Activity (%)
Respond numerically; units are % and should not be typed.

Query string: Which value of Activity has been reported for `O=C1c2ccccc2C(=O)c2c1ccc1nc(SCC(=O)N3CCOCC3)[nH]c21` in the records?
Result string: 103

Query string: Which value of Activity has been reported for `CCCN(CCC)C(=O)CSc1nc2ccc3c(c2[nH]1)C(=O)c1ccccc1C3=O` in the records?
Result string: 94

Query string: Which value of Activity has been reported for `O=C1c2ccccc2C(=O)c2c1ccc1nc(SCCCCCCCl)[nH]c21` in the records?
Result string: 105

Query string: Which value of Activity has been reported for `O=C1c2ccccc2C(=O)c2c1ccc1nc(SC(=O)N3CCCC3)[nH]c21` in the records?
Result string: 96

Query string: Which value of Activity has been reported for `O=C1c2ccccc2C(=O)c2c1ccc1nc(SCCN3CCCC3)[nH]c21` in the records?
Result string: 102

Query string: Which value of Activity has been reported for `O=C1c2ccccc2C(=O)c2c1ccc1nc3n(c21)CCS3` in the records?
Result string: 107

Query string: Which value of Activity has been reported for `O=C1c2ccccc2C(=O)c2c1ccc1nc(SCCC(=O)N3CCOCC3)[nH]c21` in the records?
Result string: 105

Query string: Which value of Activity has been reported for `COC(=O)/C=C/CSc1nc2ccc3c(c2[nH]1)C(=O)c1ccccc1C3=O` in the records?
Result string: 88

Query string: Which value of Activity has been reported for `O=C1c2ccccc2C(=O)c2c1ccc1nc(SCCCCCBr)[nH]c21` in the records?
Result string: 92

Query string: Which value of Activity has been reported for O=C1c2c(O)ccc(O)c2C(=O)c2c(NCCNCCO)ccc(NCCNCCO)c21 [MITOXANTRONE] in the records?
Result string: 21

###

Assay System: Telomerase reverse transcriptase (Homo sapiens) (UniProt O14746)
Protocol Details: Inhibition of human tert transcriptional activity assessed as SEAP activity at 100 uM after 24 hrs by SEAP reporter assay
Design: scale not given: the % may be the effect or the level left
Assign Activity to each entry below.
Respond numerically; units are % and should not be typed.

Query string: Field: Activity (Telomerase reverse transcriptase (Homo sapiens) (UniProt O14746)). Entry: `O=C(Sc1nc2ccc3c(c2[nH]1)C(=O)c1ccccc1C3=O)c1cc(C(F)(F)F)ccc1C(F)(F)F`
Result string: 75

Query string: Field: Activity (Telomerase reverse transcriptase (Homo sapiens) (UniProt O14746)). Entry: `O=C1c2ccccc2C(=O)c2c1ccc1nc(SCC(=O)N3CCCC3)[nH]c21`
Result string: 64

Query string: Field: Activity (Telomerase reverse transcriptase (Homo sapiens) (UniProt O14746)). Entry: `CCN(CC)C(=O)CCSc1nc2ccc3c(c2[nH]1)C(=O)c1ccccc1C3=O`
Result string: 64

Query string: Field: Activity (Telomerase reverse transcriptase (Homo sapiens) (UniProt O14746)). Entry: `O=C1c2ccccc2C(=O)c2c1ccc1nc(SCCN3CCOCC3)[nH]c21`
Result string: 36

Query string: Field: Activity (Telomerase reverse transcriptase (Homo sapiens) (UniProt O14746)). Entry: `CCCCSc1nc2ccc3c(c2[nH]1)C(=O)c1ccccc1C3=O`
Result string: 53

###

Test system: RPMI-8226
Protocol Details: Cytotoxicity against human RPMI8226 cells assessed as growth inhibition after 48 hrs by SRB assay
Assay type: functional
Assay Context: RPMI-8226, 48 h
Measured Quantity: TGI (µM)
Respond numerically; units are µM and should not be typed.

Query string: Which value of TGI has been reported for `O=C1c2ccccc2C(=O)c2c1ccc1nc(SCCN3CCCC3)[nH]c21` in the records?
Result string: 4.31

Query string: Which value of TGI has been reported for `CN(C)CCCSc1nc2ccc3c(c2[nH]1)C(=O)c1ccccc1C3=O` in the records?
Result string: 4.62

###

Tested on: HOP-62
Protocol Details: Cytotoxicity against human HOP62 cells assessed as growth inhibition after 48 hrs by SRB assay
Type: functional
Measured Quantity: growth inhibition (GI)

>>> observed("CCSc1nc2ccc3c(c2[nH]1)C(=O)c1ccccc1C3=O")
"Dose-dependent effect"
>>> observed("CCCSc1nc2ccc3c(c2[nH]1)C(=O)c1ccccc1C3=O")
"Dose-dependent effect"
>>> observed("O=C1c2ccccc2C(=O)c2c1ccc1nc(SCCN3CCCC3)[nH]c21")
"Dose-dependent effect"
>>> observed("CN(C)CCCSc1nc2ccc3c(c2[nH]1)C(=O)c1ccccc1C3=O")
"Dose-dependent effect"
